# Assay Name: Apparent BBB permeability in 3D in vitro blood brain barrier model
# Assay type: in vitro ADME, human
# Condition Info: human, 3D BBB model
Reported Metric: Papp at 30 min

Dear colleague, please send me the reported Papp at 30 min for Cn1nnc2c(C(N)=O)ncn2c1=O [TMZ, Temozolomide, reference compound] when you can.
172 ×10⁻⁶ cm/s

Values from patent US20240325328A1
